# Tested on: HCT-116 colon
# Assay procedure: NCI tumour cell line growth inhibition, 48 h; in the data active = GI50 below about 0.43 µM; inactive = the rest
Outcomes: 1 for active, -1 for inactive

Compound	Assay system	Label value
N#CC1=C(N)NC(=S)NC12Nc1ccccc1S2 (stereo unspecified)	HCT-116 colon	-1
O=c1c2ccccc2c(/C=N\NC2=NCCN2)c2oc3ccccc3n12	HCT-116 colon	-1
COc1cc([N+](=O)[O-])c(OC)cc1-c1nc2sc(C)cn2c1/C(N)=N/C(=N)N	HCT-116 colon	-1
Cc1cnc2oc3ccc(O)cc3c2c1-c1ccccc1	HCT-116 colon	-1
O=C(C=P(c1ccccc1)(c1ccccc1)c1ccccc1)CCl	HCT-116 colon	1
COc1ccc(/C=C2\COc3ccc(O)c(O)c3C2=O)c(OC)c1OC	HCT-116 colon	-1
